target: CDK2/Cyclin E1 complex (Homo sapiens); test: CDK2 inhibition assay (Caliper/LabChip EZ Reader kinase assay); type: biochemical; details: Table 1; CDK2/Cyclin E1 0.5 nM, ATP 2 mM, 35 min at 27° C.; listed as 139
READOUT: IC50

COMPOUND	RESULT
O=c1[nH]cc(-c2ccc3c(-c4nc(N[C@H]5CCCNC5)ncc4C(F)(F)F)c[nH]c3c2)c(=O)[nH]1 [Compound 333]	> 5 µM

###

biological target: CDK9/Cyclin T1 complex (Homo sapiens); test: CDK9 inhibition assay (Caliper/LabChip EZ Reader kinase assay); type: biochemical; details: Table 1; CDK9/Cyclin T1 8 nM, ATP 2 mM, 15 min at 27° C.
Sequence (P50750 whole entry, species assumed): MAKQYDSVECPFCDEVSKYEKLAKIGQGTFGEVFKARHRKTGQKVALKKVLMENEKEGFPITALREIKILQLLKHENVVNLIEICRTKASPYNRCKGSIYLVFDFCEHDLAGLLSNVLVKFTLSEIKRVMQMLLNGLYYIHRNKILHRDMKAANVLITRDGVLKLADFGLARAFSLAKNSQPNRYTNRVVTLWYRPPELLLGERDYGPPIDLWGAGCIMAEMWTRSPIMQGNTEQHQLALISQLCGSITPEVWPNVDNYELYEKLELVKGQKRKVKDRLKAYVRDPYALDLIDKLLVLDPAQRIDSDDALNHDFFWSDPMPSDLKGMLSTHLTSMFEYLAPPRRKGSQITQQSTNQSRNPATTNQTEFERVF
Sequence (O60563 whole entry partner, species assumed): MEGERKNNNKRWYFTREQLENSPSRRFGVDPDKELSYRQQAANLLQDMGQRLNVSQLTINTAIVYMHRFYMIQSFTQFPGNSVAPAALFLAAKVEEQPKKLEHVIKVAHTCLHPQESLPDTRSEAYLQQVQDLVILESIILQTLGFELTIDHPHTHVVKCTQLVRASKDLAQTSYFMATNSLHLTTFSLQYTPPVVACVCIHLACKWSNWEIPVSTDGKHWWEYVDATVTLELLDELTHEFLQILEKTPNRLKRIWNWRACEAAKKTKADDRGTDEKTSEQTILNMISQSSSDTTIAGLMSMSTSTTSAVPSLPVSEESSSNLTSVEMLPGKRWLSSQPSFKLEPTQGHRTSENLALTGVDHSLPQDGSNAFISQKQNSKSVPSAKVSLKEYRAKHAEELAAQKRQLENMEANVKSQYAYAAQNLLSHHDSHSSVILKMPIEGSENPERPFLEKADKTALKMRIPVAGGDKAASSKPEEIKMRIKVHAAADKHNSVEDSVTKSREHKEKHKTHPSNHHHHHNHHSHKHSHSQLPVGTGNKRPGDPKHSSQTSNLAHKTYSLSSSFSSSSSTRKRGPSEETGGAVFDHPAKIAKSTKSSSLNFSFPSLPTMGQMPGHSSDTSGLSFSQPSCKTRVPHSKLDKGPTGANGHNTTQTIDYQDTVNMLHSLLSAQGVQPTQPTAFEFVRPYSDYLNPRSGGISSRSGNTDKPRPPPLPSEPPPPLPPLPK
pIC50: −log10 of the molar value.
This listing pairs compounds with measured pIC50.

COMPOUND	pIC50
FC(F)(F)c1cnc(N[C@H]2CCCNC2)nc1-c1c[nH]c2cc(-c3ncc[nH]3)ccc12	5.30 to 6.70
C[C@H]1CCNC[C@H]1Nc1ncc(C(F)(F)F)c(-c2c[nH]c3ccccc23)n1	< 5.30
Cn1cc(-c2ccc3c(-c4nc(NC5CCCNC5)ncc4C(F)(F)F)c[nH]c3c2)ccc1=O (stereo not drawn)	< 5.30
N#Cc1cnc(N[C@H]2CCCNC2)nc1-c1c[nH]c2ccccc12	5.30 to 6.70
CCC(=O)N[C@@H]1CNC[C@H](Nc2ncc(C(F)(F)F)c(-c3c[nH]c4c(S(C)(=O)=O)cccc34)n2)C1 (single isomer, unassigned)	5.30 to 6.70
CC[C@]1(O)CCN(C(=O)c2ccc3c(-c4nc(N[C@H]5CCCNC5)ncc4C(F)(F)F)c[nH]c3c2)C1 (single isomer, unassigned)	< 5.30
FC(F)Sc1ccc2c(-c3nc(N[C@H]4CCCNC4)ncc3C(F)(F)F)c[nH]c2c1	5.30 to 6.70
CC(O)c1cnc(N[C@H]2CCCNC2)nc1-c1c[nH]c2ccccc12 (mixture of isomers)	< 5.30
Cn1cc(-c2nc(NC3CCCNC3)ncc2C(F)(F)F)c2cccc(C#N)c21 (stereo not drawn)	< 5.30
CS(=O)(=O)c1c(C#N)ccc2c(-c3nc(N[C@H]4CCCNC4)ncc3Cl)c[nH]c12	5.30 to 6.70
Cc1ccncc1-c1ccc2c(-c3nc(NC4CCCNC4)ncc3C(F)(F)F)c[nH]c2c1 (stereo not drawn)	5.30 to 6.70
CN1CCN(c2cccc3c(-c4nc(N[C@H]5CCCNC5)ncc4C(F)(F)F)c[nH]c23)C1=O	5.30 to 6.70
FC(F)(F)c1cnc(NC2C3CCC2NC3)nc1-c1c[nH]c2ccccc12 (stereo not drawn)	5.30 to 6.70
FC(F)(F)c1cnc(N[C@H]2CCCNC2)nc1-c1n[nH]c2ccccc12	5.30 to 6.70
CN(C)S(=O)(=O)c1ccc2c(-c3nc(N[C@H]4CCCNC4)ncc3C(F)(F)F)c[nH]c2c1	5.30 to 6.70

Reference source: patent US20240360165A1
